Listed here are compounds together with their documented inhibition.
tested on: Mast/stem cell growth factor receptor Kit (Homo sapiens), P10721 [V560G]; details: at 0.1 µM
Sequence (P10721 whole entry V560G): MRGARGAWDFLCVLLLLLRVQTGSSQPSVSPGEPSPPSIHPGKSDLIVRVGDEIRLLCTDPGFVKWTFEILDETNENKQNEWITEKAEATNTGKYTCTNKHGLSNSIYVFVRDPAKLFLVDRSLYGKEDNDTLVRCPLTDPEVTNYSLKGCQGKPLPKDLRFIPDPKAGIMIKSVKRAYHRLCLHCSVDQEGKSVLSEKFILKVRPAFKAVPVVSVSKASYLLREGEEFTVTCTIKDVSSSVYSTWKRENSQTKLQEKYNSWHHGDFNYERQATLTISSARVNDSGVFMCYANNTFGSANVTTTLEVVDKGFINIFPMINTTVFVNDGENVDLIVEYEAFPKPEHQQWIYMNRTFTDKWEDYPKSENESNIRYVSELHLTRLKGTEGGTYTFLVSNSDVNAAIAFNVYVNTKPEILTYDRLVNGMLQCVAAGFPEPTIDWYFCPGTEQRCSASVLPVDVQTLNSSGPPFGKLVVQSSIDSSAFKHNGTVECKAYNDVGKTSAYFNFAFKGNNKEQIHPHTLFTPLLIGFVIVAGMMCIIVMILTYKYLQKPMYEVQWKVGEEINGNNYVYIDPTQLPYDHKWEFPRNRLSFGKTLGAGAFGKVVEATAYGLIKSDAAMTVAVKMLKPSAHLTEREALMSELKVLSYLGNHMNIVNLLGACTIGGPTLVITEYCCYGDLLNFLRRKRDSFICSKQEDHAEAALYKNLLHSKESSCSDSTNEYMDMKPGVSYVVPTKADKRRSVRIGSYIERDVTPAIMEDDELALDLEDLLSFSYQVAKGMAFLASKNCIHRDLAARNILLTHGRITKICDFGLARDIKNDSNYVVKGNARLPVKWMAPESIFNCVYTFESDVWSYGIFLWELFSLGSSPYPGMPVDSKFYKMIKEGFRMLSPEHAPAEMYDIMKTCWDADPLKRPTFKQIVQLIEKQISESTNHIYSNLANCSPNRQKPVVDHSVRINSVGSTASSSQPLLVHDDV

>  <compound>
CN(C)CCOc1ccc(-c2cc(-c3ccc4c(c3)CCC4=NO)c(-c3ccncc3)o2)cc1

>  <inhibition>
1.5%

$$$$
>  <compound>
Nc1nccc(-c2c(-c3ccc(F)cc3)ncn2C2CCC(O)CC2)n1 (stereo not given)

>  <inhibition>
1.44%

$$$$
>  <compound>
NS(=O)(=O)c1ccc(N/N=C2\C(=O)Nc3ccc(C(=O)NCCCn4ccnc4)cc32)cc1

>  <inhibition>
-1.18%

$$$$
>  <compound>
COc1cccc(/C=N/Nc2ncnc3c2cnn3-c2cccc(OC)c2)c1

>  <inhibition>
3.55%

$$$$
>  <compound>
NCc1ccc(-n2c(-c3nonc3N)nc3cnccc32)cc1

>  <inhibition>
-2.06%

$$$$

###

In this section, each of the compounds is paired with its reported inhibition.
Molecular target: Dual specificity protein kinase TTK (Homo sapiens) (UniProt P33981)
Sequence (whole entry): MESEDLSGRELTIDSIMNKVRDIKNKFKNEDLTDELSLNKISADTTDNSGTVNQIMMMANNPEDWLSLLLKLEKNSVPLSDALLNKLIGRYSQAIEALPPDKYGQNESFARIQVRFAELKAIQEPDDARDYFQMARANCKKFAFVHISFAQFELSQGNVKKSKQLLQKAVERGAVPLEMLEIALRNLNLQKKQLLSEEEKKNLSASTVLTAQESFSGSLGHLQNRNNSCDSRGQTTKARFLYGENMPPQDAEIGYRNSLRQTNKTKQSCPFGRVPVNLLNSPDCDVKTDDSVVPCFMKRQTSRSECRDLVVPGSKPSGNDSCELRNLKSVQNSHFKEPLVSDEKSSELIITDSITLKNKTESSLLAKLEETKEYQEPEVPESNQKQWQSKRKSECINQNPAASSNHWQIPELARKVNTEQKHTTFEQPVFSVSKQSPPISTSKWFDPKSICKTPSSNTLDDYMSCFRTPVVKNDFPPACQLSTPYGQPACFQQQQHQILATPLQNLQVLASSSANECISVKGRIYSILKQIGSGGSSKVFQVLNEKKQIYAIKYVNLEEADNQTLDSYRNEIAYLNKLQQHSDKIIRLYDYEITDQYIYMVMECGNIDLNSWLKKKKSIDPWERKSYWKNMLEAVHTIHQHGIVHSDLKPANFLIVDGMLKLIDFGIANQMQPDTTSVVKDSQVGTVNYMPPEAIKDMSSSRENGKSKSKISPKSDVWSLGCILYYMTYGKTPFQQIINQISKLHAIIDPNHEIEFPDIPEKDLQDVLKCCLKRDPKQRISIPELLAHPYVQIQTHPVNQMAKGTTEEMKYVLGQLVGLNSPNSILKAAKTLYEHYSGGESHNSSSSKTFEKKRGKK
Settings: at 1 µM

>  <compound>
O=C(NCC1CC1)c1ccc(-c2cccc(C(=O)NC3CC3)c2)cc1

>  <test_system>
Dual specificity protein kinase TTK (Homo sapiens) (UniProt P33981)

>  <inhibition>
3.09%

$$$$
>  <compound>
Fc1ccc(-c2ncn(CCCN3CCOCC3)c2-c2ccncc2)cc1

>  <test_system>
Dual specificity protein kinase TTK (Homo sapiens) (UniProt P33981)

>  <inhibition>
5.54%

$$$$
>  <compound>
COC(=O)Nc1nc2ccc(Sc3ccc(NC(=O)Nc4cc(C(F)(F)F)ccc4F)cc3)cc2[nH]1

>  <test_system>
Dual specificity protein kinase TTK (Homo sapiens) (UniProt P33981)

>  <inhibition>
8.33%

$$$$
>  <compound>
NC(=O)c1ccc(Oc2nccc(-c3c(-c4ccc(F)cc4)ncn3C3CCNCC3)n2)cc1

>  <test_system>
Dual specificity protein kinase TTK (Homo sapiens) (UniProt P33981)

>  <inhibition>
12.5%

$$$$
>  <compound>
Cc1ccc(C(=O)NC(C)C)cc1-c1ccc(C(=O)NCC2CC2)cc1

>  <test_system>
Dual specificity protein kinase TTK (Homo sapiens) (UniProt P33981)

>  <inhibition>
-5.81%

$$$$
>  <compound>
COc1cc2ncn(-c3cc(OCCc4ccccc4)c(C(N)=O)s3)c2cc1OC

>  <test_system>
Dual specificity protein kinase TTK (Homo sapiens) (UniProt P33981)

>  <inhibition>
6.73%

$$$$
>  <compound>
CCc1nccc2c1nc(-c1nonc1N)n2CC

>  <test_system>
Dual specificity protein kinase TTK (Homo sapiens) (UniProt P33981)

>  <inhibition>
2.94%

$$$$
>  <compound>
COc1cc(Nc2ncc3c(C)nc(-c4cccc(Oc5ccccc5)c4)n3n2)cc(OC)c1OC

>  <test_system>
Dual specificity protein kinase TTK (Homo sapiens) (UniProt P33981)

>  <inhibition>
14.8%

$$$$
>  <compound>
Nc1nccc(-c2c(-c3ccc(F)cc3)ncn2C2CCC(O)CC2)n1 (stereo not given)

>  <test_system>
Dual specificity protein kinase TTK (Homo sapiens) (UniProt P33981)

>  <inhibition>
-0.22%

$$$$
>  <compound>
NC(=O)Cc1ccccc1Oc1nccc(-c2c(-c3ccc(F)cc3)ncn2C2CCNCC2)n1

>  <test_system>
Dual specificity protein kinase TTK (Homo sapiens) (UniProt P33981);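 also: reported figures are mean TTK inhibition at 1 µM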

>  <inhibition>
7.71%

$$$$

Data origin: ChEMBL document CHEMBL1961873
